Numbers sourced from patent US8476290B2.

- Assay: Blood kinetic test and time (T90) to maintain the IC90 value
- Format: in vivo, Crl:CD(SD) Rat
- Study Conditions: time the plasma concentration stays at the PBMC IC90 value or more; rat, intravenous 1 mg/kg
Measured Metric: T90

// below: answered molecules
[
  {
    "Molecule": "CCC(CC)N1CCC2(CC1)CN(Cc1ccc(CN(Cc3ncc[nH]3)Cc3ncc[nH]3)cc1)CC2C(=O)O (stereo not shown)",
    "Measured Metric": "T90",
    "Result": "17 h"
  },
  {
    "Molecule": "CCC(CC)N1CCC2(CCN(CCCn3ccnc3CN(Cc3cccc(CC(=O)O)c3)Cc3ncc[nH]3)C2)CC1",
    "Measured Metric": "T90",
    "Result": "4 h"
  },
  {
    "Molecule": "CCOC(=O)C1CC2(CCN(Cc3ccc(C(=O)N(Cc4ncc[nH]4)Cc4ncc[nH]4)cc3)CC2)CN1C1CCCCC1 (stereo not shown)",
    "Measured Metric": "T90",
    "Result": "<1 h"
  }
]

Need T90 for each of these molecules.
1. CCC(CC)N1CCC2(CC1)CC(C(=O)O)N(Cc1ccc(CN(Cc3ncc[nH]3)Cc3ncc[nH]3)cc1)C2 (stereo not shown)
2. CCC(CC)N1CCC2(CC1)CCN(Cc1ccc(CN(Cc3ncc[nH]3)Cc3ncc[nH]3)cc1)C2C(=O)O (stereo not shown)
3. CCC(CC)N1CCC2(CC1)C[C@@H](C(N)=O)N(Cc1ccc(CN(Cc3ncc[nH]3)Cc3ncc[nH]3)cc1)C2
4. COC(=O)c1cc(CN(Cc2ncc[nH]2)Cc2ncc[nH]2)ccc1CN1CCC2(CCN(Cc3sccc3C)CC2)C1

**Result**
["91 h", "6 h", "7 h", "14 h"]

====

- Target Desc: CXCR4 (Homo sapiens)
- Construct: a human T cell strain in which CXCR4 is known to be expressed; endogenous in cells
- Sequence (P61073 whole entry): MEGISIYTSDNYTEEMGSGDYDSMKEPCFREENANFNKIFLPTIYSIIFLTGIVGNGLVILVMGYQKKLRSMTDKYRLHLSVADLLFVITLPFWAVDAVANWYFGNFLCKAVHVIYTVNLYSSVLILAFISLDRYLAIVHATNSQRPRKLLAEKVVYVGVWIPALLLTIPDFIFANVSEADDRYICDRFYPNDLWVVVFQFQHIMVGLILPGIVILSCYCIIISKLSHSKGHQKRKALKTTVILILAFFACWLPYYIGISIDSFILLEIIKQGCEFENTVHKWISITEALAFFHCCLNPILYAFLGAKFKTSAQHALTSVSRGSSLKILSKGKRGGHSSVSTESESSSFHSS
- Assay: Inhibition of binding human SDF-1 to CEM cells
- Study Conditions: 125I-SDF-1, CEM cells, 4° C., 60 minutes; read-out: concentration showing 50% of an inhibition ratio
I'd appreciate it if you could supply pIC50 values for the items below.
Give bare numbers, as −log10 of the molar value.

// below: answered compounds
[
  {
    "Compound": "CCC(CC)N1CCC2(CC1)CC(C(=O)O)N(Cc1ccc(CN(Cc3ncc[nH]3)Cc3ncc[nH]3)cc1)C2 (centres unmarked) [Example 5(5)]",
    "pIC50": 8.52
  },
  {
    "Compound": "CCC(CC)N1CCC2(CC1)C[C@@H](C(=O)O)N(Cc1ccc(CN(Cc3ncc[nH]3)Cc3ncc[nH]3)cc1)C2 [Example 32(7)]",
    "pIC50": 8.49
  }
]

Need pIC50 for each of these compounds.
1. CCC(CC)N1CCC2(CC1)C[C@@H](C(=O)O)N(Cc1ccc(CN(Cc3ncc[nH]3)Cc3nccn3C)cc1)C2 [Example 37(7)]
2. CCC(CC)N1CCC2(CC1)C[C@H](C(=O)O)N(Cc1ccc(CN(Cc3ncc[nH]3)Cc3nccn3C)cc1)C2 [Example 37(6)]
3. CCC(CC)N1CCC2(CC1)C[C@H](C(=O)O)N(Cc1ccc(CN(Cc3ncc[nH]3)Cc3ncc[nH]3)cc1)C2 [Example 32(6)]

**Result**
7.95
7.95
8.48

====

- Assay: Blood kinetic test and time (T90) to maintain the IC90 value
- Assay type: in vivo, Crl:CD(SD) Rat
- Study Conditions: time the plasma concentration stays at the PBMC IC90 value or more; rat, intravenous 1 mg/kg
Outcome label depends on T90 relative to 3 h: at/above gives yes, below gives no.

**Query** Does CCC(CC)N1CCC2(CCN(Cc3ccc(CN(Cc4ncc[nH]4)Cc4ncc[nH]4)cc3)C2)CC1 [b] have a reported T90 of at least 3 h?
**Result** yes

**Query** Does O=C(O)Cn1ccnc1CN(Cc1ccc(CN2CCC3(CCN(C4CCCCC4)CC3)C2)cc1)Cc1ncc[nH]1 [l] have a reported T90 of at least 3 h?
**Result** yes

**Query** Does CC(C)CN1CCC2(CCN(Cc3ccc(CN(Cc4ncc[nH]4)Cc4ncc[nH]4)cc3)C2)CC1C(=O)O (stereo not drawn) [g] have a reported T90 of at least 3 h?
**Result** no

**Query** Does CCC(CC)N1CC2(CCN(Cc3ccc(CN(Cc4ncc[nH]4)Cc4ncc[nH]4)cc3)CC2)CC1C(=O)O (stereo not drawn) [h] have a reported T90 of at least 3 h?
**Result** no

**Query** Does O=C(O)c1cc(CN(Cc2ncc[nH]2)Cc2ncc[nH]2)ccc1CN1CCC2(CCN(C3CCCCC3)CC2)C1 [d] have a reported T90 of at least 3 h?
**Result** yes
